Target: MAPK2 (Homo sapiens, UniProt P28482)
Construct: purchased Millipore Corporation
Sequence (P28482 whole entry): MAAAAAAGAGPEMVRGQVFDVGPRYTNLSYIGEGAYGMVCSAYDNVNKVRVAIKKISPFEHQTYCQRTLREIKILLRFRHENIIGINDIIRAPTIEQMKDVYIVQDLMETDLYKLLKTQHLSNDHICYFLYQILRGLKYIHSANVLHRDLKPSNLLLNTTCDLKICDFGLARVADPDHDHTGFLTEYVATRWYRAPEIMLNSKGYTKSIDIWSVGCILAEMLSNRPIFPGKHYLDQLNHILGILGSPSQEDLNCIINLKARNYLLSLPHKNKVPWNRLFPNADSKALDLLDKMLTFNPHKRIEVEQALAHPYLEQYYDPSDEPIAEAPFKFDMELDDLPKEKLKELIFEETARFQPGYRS
Experiment: Panel of 270 human kinases (Millipore)
Format: biochemical
Measured inhibition at 1 µM of individual entries
// return numeric value only (unit: %, not printed)

# Compound, inhibition at 1 µM, %
records = [
    ("CC(C)C[C@@H](NC(=O)c1ccc2[nH]nc(-c3ccc(N4CCN(C5COC5)CC4)cc3)c2c1)c1ccccc1Cl", 5),
    ("CC(C)[C@H](NC(=O)c1ccc2[nH]nc(-c3ccc(OC4CC5CCC(C4)N5C4COC4)cc3)c2c1)c1ccccc1Cl (stereo partly drawn)", 0),
    ("CC(C)[C@H](NC(=O)c1ccc2[nH]nc(-c3ccc(N4CCN(C5COC5)CC4)cc3)c2c1)c1ccccc1Cl", 11),
]

Prompt line: Name the recorded inhibition at 1 µM for `O=C(N[C@H](c1ccccn1)C1CCCC1)c1ccc2[nH]nc(-c3ccc(N4CCN(C5COC5)CC4)cc3)c2c1` .
Response line: -8

Prompt line: What value of measured inhibition at 1 µM is listed for `CC1=CC2(CCN(C)CC2)Oc2ccc(-c3n[nH]c4ccc(C(=O)N[C@H](c5ccccn5)C5CCCC5)cc34)cc21` ?
Response line: 8

Prompt line: Query (compound): O=C(N[C@@H](c1ccccn1)C1CC1)c1ccc2[nH]nc(-c3ccc(N4C5CCC4CC(O)C5)cc3)c2c1 (stereo partly drawn) ; field requested: inhibition at 1 µM
Response line: 90

====

Molecular target: Met(Y1248C) (Homo sapiens, UniProt P08581, Y1230C)
Construct: purchased Millipore Corporation
Sequence (P08581 25-1408 isoform P08581-2 Y1248C limits assumed): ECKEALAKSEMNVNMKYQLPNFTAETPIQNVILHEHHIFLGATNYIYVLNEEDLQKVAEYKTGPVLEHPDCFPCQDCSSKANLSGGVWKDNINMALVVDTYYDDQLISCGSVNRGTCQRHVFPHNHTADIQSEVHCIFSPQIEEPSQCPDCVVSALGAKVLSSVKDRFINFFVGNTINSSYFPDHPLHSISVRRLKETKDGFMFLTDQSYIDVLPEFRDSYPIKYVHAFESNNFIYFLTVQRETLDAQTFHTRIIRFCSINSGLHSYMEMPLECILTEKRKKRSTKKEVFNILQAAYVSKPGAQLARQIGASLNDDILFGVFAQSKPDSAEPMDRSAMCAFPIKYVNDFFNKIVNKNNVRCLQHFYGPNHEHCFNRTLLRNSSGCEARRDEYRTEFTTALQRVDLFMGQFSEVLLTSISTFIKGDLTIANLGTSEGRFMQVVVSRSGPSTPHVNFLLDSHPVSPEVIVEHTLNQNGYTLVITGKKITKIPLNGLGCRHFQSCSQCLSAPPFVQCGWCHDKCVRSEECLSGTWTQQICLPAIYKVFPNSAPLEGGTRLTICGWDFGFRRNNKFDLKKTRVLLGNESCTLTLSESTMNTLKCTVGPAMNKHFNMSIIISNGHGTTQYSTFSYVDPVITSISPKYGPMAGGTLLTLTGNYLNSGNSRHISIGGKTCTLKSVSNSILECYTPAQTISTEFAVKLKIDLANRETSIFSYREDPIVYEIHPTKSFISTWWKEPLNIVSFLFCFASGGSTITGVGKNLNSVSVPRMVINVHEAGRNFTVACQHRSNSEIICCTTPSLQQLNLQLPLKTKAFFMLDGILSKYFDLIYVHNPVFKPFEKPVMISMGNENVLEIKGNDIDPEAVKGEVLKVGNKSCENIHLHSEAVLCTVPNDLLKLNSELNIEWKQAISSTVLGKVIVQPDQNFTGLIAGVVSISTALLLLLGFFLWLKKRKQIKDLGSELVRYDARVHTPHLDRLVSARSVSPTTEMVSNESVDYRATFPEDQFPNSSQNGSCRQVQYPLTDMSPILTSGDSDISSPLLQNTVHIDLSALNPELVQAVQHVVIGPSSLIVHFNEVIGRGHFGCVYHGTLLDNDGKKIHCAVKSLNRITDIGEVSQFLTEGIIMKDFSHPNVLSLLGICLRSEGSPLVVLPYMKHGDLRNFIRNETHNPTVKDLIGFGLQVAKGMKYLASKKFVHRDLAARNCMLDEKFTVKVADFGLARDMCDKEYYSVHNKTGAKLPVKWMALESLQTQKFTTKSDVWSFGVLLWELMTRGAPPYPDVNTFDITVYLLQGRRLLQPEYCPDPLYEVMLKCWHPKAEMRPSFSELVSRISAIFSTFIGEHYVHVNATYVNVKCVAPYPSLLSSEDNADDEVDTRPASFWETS
Assay: Panel of 270 human kinases (Millipore)
Assay type: biochemical
Item-by-item account of inhibition at 1 µM
// return numeric value only (unit: %, not printed)

# Compound, Measured Property, Unit Abbreviation, Reported Measurement
records = [
    ("O=C(N[C@H](c1ccccn1)C1CCCC1)c1ccc2[nH]nc(-c3ccc(N4CCN(C5COC5)CC4)cc3)c2c1 [Example A410]", "inhibition at 1 µM", "%", 88),
]

Prompt line: Which measured inhibition at 1 µM belongs to CC(C)[C@H](NC(=O)c1ccc2[nH]nc(-c3ccc(N4CCN(C5COC5)CC4)cc3)c2c1)c1ccccc1Cl [Example A405] , tested on Met(Y1248C) (Homo sapiens, UniProt P08581, Y1230C)?
Response line: 44

Prompt line: Form: Entry = CC(C)[C@H](NC(=O)c1ccc2[nH]nc(-c3ccc(OC4CC5CCC(C4)N5C4COC4)cc3)c2c1)c1ccccc1Cl (stereo partly drawn) [Example A335] | System = Met(Y1248C) (Homo sapiens, UniProt P08581, Y1230C) | inhibition at 1 µM = ____
Response line: 42

Prompt line: Form field - read-out: inhibition at 1 µM; system: Met(Y1248C) (Homo sapiens, UniProt P08581, Y1230C); submitted item: O=C(N[C@@H](c1ccccn1)C1CC1)c1ccc2[nH]nc(-c3ccc(N4C5CCC4CC(O)C5)cc3)c2c1 (stereo partly drawn) [Example A363]
Response line: 23

Prompt line: Report inhibition at 1 µM for CC1=CC2(CCN(C)CC2)Oc2ccc(-c3n[nH]c4ccc(C(=O)N[C@H](c5ccccn5)C5CCCC5)cc34)cc21 [Example A261] tested on Met(Y1248C) (Homo sapiens, UniProt P08581, Y1230C).
Response line: 8

Prompt line: Can you look up inhibition at 1 µM on Met(Y1248C) (Homo sapiens, UniProt P08581, Y1230C) for CC(C)C[C@@H](NC(=O)c1ccc2[nH]nc(-c3ccc(N4CCN(C5COC5)CC4)cc3)c2c1)c1ccccc1Cl [Example A300] ?
Response line: 40

====

Target: human TTK (Homo sapiens)
Construct: amino terminal GST fusion of full length human TTK; purchased Invitrogen
Test: TTK inhibition assay (indirect ELISA)
Format: biochemical
Conditions: read-out: TTK IC50 Range
pIC50: −log10 of the molar value.
In this section we review reported pIC50 values for a set of compounds.

# Compound, pIC50
measured = [
    ("O=C(NCC1(OC2CCCC2)CCCCC1)c1ccc2[nH]nc(-c3ccc(N4CCOCC4)cc3)c2c1", "> 7.00"),
    ("CC(C)(O)CN1CCC(Oc2ccc(-c3n[nH]c4ccc(C(=O)N[C@H](c5ccccn5)C5CC5)cc34)cc2)CC1", "> 7.00"),
    ("O=CN1C2CCC1CC(Oc1ccc(-c3n[nH]c4ccc(C(=O)N[C@H](c5ccccc5Cl)C5CC5)cc34)cc1)C2 (stereo partly shown)", "> 7.00"),
]

Now look at this entry.
Prompt line: Dear colleague, I am looking for the recorded pIC50 of the following compound: O=C(N[C@H](c1ccsc1)C1CC1)c1ccc2[nH]nc(-c3ccc(N4C5CCC4CC(O)C5)cc3)c2c1 (stereo partly shown)
Response line: > 7.00

====

Target: human TTK (Homo sapiens, UniProt P33981)
Construct: amino terminal GST fusion of full length human TTK; purchased Invitrogen
Sequence (P33981 whole entry, the tested form may be a part): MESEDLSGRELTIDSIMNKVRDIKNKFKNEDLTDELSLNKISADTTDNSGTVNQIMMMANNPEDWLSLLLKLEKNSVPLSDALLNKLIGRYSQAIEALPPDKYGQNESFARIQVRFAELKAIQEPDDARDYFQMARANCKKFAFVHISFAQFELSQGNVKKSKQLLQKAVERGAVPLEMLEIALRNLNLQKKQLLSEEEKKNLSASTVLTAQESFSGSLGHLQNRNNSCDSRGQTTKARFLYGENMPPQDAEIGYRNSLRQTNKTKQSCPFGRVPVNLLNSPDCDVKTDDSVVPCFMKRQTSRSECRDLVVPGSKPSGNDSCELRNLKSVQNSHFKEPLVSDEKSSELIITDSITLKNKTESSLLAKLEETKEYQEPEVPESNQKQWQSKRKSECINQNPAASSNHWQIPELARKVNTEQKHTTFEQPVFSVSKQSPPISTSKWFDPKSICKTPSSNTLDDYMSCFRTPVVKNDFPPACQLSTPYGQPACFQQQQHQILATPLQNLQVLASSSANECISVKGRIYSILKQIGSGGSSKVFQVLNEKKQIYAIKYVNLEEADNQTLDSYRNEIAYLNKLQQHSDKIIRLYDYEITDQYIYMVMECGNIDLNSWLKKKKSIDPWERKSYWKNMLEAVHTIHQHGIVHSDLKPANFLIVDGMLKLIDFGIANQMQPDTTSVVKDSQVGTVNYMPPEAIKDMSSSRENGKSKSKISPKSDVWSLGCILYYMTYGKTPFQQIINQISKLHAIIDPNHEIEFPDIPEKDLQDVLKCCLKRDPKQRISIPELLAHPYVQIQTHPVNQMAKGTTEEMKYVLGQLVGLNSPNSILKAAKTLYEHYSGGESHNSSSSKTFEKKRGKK
Assay: TTK inhibition assay (indirect ELISA)
Format: biochemical
Conditions: read-out: TTK IC50 Range
Overview of reported IC50 across a group of compounds:

Answered examples (4):
# Compound, Reported Measurement
records = [
    ("O=C(NCC1(N2CCOCC2)CCCCC1)c1ccc2[nH]nc(-c3ccc(OC4CCN(CCO)CC4)cc3)c2c1", "< 100 nM"),
    ("CN1CCC(CNC(=O)c2ccc3[nH]nc(-c4ccc(N5[C@@H]6CC[C@H]5COC6)cc4)c3c2)(c2ccccc2)CC1", "< 100 nM"),
    ("O=C(NC(c1ccccc1)C1CC1)c1ccc2[nH]nc(-c3ccc(N4CCOCC4)nc3)c2c1 (centres unmarked)", "< 100 nM"),
    ("CC(C)C(NC(=O)c1ccc2[nH]nc(-c3ccc(OC4CC5CCC(C4)N5C)cc3)c2c1)c1ccccn1 (centres unmarked) [Example A395]", "< 100 nM"),
]

Prompt line: Can you share its IC50? I mean this compound: CN1[C@@H]2CC[C@H]1C[C@@H](Oc1ccc(-c3n[nH]c4ccc(C(=O)NC(c5ccccc5Cl)C5CCCC5)cc34)cc1)C2 (some centres unmarked)
Response line: < 100 nM

Prompt line: Reported IC50, compound O=CN1C2CCC1CC(Oc1ccc(-c3n[nH]c4ccc(C(=O)N[C@@H](c5ccccn5)C5CC5)cc34)cc1)C2 (some centres unmarked) : ____
Response line: < 100 nM

Prompt line: For the compound shown here, `CN1CCC(Oc2ccc(-c3n[nH]c4ccc(C(=O)NCC5(N6CCOCC6)CCC(F)(F)CC5)cc34)cc2)CC1` , give the reported IC50.
Response line: < 100 nM

Prompt line: Consider the compound shown here: `O=C(N[C@H](c1ccccn1)C1CCCC1)c1ccc2[nH]nc(-c3ccc(N4CC(C5COC5)C4)cc3)c2c1` What is its recorded IC50?
Response line: < 100 nM

Prompt line: Which IC50 is listed for CC(C)C[C@H](NC(=O)c1ccc2[nH]nc(-c3ccc(N4C5COCC4CC(O)C5)cc3)c2c1)c1ccccc1Cl (some centres unmarked) ?
Response line: < 100 nM

Prompt line: Can you share its IC50? I mean this compound: `CC(C)C[C@@H](NC(=O)c1ccc2[nH]nc(-c3ccc(N4CCN(C5COC5)CC4)cc3)c2c1)c1ccccc1Cl`
Response line: < 100 nM

Prompt line: I would be grateful if you could share the reported IC50 for `O=C(N[C@H](c1ccccn1)C1CCCC1)c1ccc2[nH]nc(-c3ccc(OC4CCN(CCO)CC4)cc3)c2c1` .
Response line: < 100 nM

Prompt line: // returns reported IC50 for input CC(C)C(NC(=O)c1ccc2[nH]nc(-c3ccc(OC4CC5CCC(C4)N5C)cc3)c2c1)c1ccccn1 (centres unmarked) [Example A396]
Response line: < 100 nM

Prompt line: // IC50 lookup, key: `CC1=CC2(CCN(C)CC2)Oc2ccc(-c3n[nH]c4ccc(C(=O)N[C@H](c5ccccc5Cl)C(C)C)cc34)cc21`
Response line: < 100 nM

Prompt line: Data request, read-out IC50, for O=C(NC(c1ccsc1)C1CCC1)c1ccc2[nH]nc(-c3ccc(OC4CCN(C5COC5)CC4)cc3)c2c1 (centres unmarked)
Response line: < 100 nM

====

The compounds listed here are annotated with their inhibition at 1 µM.
Target: Aurora-B (Homo sapiens)
Construct: purchased Millipore Corporation
Sequence (Q96GD4 whole entry): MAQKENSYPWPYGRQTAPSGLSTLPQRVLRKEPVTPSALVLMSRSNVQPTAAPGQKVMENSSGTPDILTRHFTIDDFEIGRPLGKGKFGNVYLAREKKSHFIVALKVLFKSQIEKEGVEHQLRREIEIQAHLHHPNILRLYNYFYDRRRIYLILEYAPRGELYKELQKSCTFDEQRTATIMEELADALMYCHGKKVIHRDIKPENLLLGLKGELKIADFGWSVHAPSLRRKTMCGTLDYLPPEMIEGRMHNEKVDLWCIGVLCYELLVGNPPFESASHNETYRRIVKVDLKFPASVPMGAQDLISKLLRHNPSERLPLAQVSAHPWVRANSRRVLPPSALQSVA
Assay: Panel of 270 human kinases (Millipore)
Assay type: biochemical
Hi! Could you send only the number? It should be in %, unit omitted.

Observe how each entry below is paired with its result.
# Compound, Reported Measurement
measured = [
    ("CC(C)C[C@@H](NC(=O)c1ccc2[nH]nc(-c3ccc(N4CCN(C5COC5)CC4)cc3)c2c1)c1ccccc1Cl [Example A300]", 69),
    ("O=C(N[C@H](c1ccccn1)C1CCCC1)c1ccc2[nH]nc(-c3ccc(N4CCN(C5COC5)CC4)cc3)c2c1 [Example A410]", 92),
    ("O=C(N[C@@H](c1ccccn1)C1CC1)c1ccc2[nH]nc(-c3ccc(N4C5CCC4CC(O)C5)cc3)c2c1 (stereo partly drawn) [Example A363]", 75),
]

Prompt line: Please report the recorded inhibition at 1 µM for CC1=CC2(CCN(C)CC2)Oc2ccc(-c3n[nH]c4ccc(C(=O)N[C@H](c5ccccn5)C5CCCC5)cc34)cc21 [Example A261] .
Response line: 49

Prompt line: Item CC(C)[C@H](NC(=O)c1ccc2[nH]nc(-c3ccc(OC4CC5CCC(C4)N5C4COC4)cc3)c2c1)c1ccccc1Cl (stereo partly drawn) [Example A335] has what recorded inhibition at 1 µM?
Response line: 87

Prompt line: What does the record list as inhibition at 1 µM for CC(C)[C@H](NC(=O)c1ccc2[nH]nc(-c3ccc(N4CCN(C5COC5)CC4)cc3)c2c1)c1ccccc1Cl [Example A405] ?
Response line: 94
